# assay-notes: physchem
# condition-details: organic solvent or mixture, thermodynamic from solid, Solubility In DMI (mg/ml)
quantity-kind: solubility (mg/mL)

compound	solubility, mg/mL
COc1ccc2[nH]cc(CCNC(C)=O)c2c1	192
CC(=O)O[C@@]12CO[C@@H]1C[C@H](O)[C@@]1(C)C(=O)[C@H](O)C3=C(C)[C@@H](OC(=O)[C@H](O)[C@@H](NC(=O)OC(C)(C)C)c4ccccc4)C[C@@](O)([C@@H](OC(=O)c4ccccc4)[C@H]21)C3(C)C	90
CO[C@H]1C[C@@H]2CC[C@@H](C)[C@@](O)(O2)C(=O)C(=O)N2CCCC[C@H]2C(=O)O[C@H]([C@H](C)C[C@@H]2CC[C@@H](O)[C@H](OC)C2)CC(=O)[C@H](C)/C=C(\C)[C@@H](O)[C@@H](OC)C(=O)[C@H](C)C[C@H](C)/C=C/C=C/C=C/1C	121

I = COc1ccc2[nH]c([S+]([O-])Cc3ncc(C)c(OC)c3C)nc2c1 (centres unmarked)
II = CCC(C)n1ncn(-c2ccc(N3CCN(c4ccc(OCC5COC(Cn6cncn6)(c6ccc(Cl)cc6Cl)O5)cc4)CC3)cc2)c1=O (centres unmarked)
Exam item: Hi there! Just curious which has the higher solubility between I and II . State the label of the item chosen.
Marked response: I
